This collection of values is drawn from patent US4528287A.

assay: in vivo; settings: mouse, po, male ddY mice, p.o., 10 days, read-out: LD50 p.o.
MEASURE: LD50 at 240 h

{"COMPOUND": "CCn1cc(C(=O)O)c(=O)c2cc(F)c(N3CCNC(C)C3)cc21 (centres unmarked)", "DATA_VALUE": "> 4000 mg/kg"}
{"COMPOUND": "CCn1cc(C(=O)O)c(=O)c2cc(F)c(N3CCNC(C)C3)c(F)c21 (centres unmarked)", "DATA_VALUE": "> 4000 mg/kg"}

====

system: Klebsiella pneumoniae PCI-602; assay: MIC, twofold agar dilution; format: cell-based; details: PCI602, Gram -, 10^6 cells/ml, 18 hrs, 37° C., read-out: Minimum inhibitory concentration (MIC)
Each item that follows carries a reported MIC.

{"MOLECULE": "CCn1cc(C(=O)O)c(=O)c2cc(F)c(N3CCNCC3)cc21 [Reference Drug, norfloxacin, reference compound]", "MIC (µg/mL)": 0.025}
{"MOLECULE": "CCn1cc(C(=O)O)c(=O)c2cc(F)c(N3CC(C)NC(C)C3)c(F)c21 (stereo not shown)", "MIC (µg/mL)": 0.2}
{"MOLECULE": "CC1CN(c2c(F)cc3c(=O)c(C(=O)O)cn(CCF)c3c2F)CCN1 (stereo not shown)", "MIC (µg/mL)": 0.023}
{"MOLECULE": "CCn1cc(C(=O)O)c(=O)c2cc(F)c(N3CCNC(C)C3)cc21 (stereo not shown)", "MIC (µg/mL)": 0.025}
